# experimental system: AGE-BSA (Bos taurus)
# Construct: Bovine serum albumin (fraction V) (BSA); from tissue; host or cells: bovine serum (fraction V albumin)
# Sequence (P02769 25-607): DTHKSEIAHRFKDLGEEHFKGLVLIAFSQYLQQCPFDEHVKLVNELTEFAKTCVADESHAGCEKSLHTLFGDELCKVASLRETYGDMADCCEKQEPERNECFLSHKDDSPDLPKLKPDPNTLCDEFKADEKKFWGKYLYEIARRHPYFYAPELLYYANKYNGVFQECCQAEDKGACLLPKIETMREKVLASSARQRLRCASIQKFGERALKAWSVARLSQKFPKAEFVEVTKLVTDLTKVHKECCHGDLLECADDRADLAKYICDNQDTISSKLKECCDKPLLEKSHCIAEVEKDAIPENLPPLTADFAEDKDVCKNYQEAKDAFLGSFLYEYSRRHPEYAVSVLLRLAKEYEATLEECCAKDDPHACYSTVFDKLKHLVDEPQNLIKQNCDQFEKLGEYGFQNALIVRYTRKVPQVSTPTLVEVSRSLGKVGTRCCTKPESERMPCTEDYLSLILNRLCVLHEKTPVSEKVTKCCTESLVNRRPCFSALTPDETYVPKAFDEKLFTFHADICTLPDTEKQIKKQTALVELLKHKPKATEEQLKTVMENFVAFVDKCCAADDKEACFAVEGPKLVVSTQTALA
# test summary: In-vitro screening for AGE-breaking activity (ELISA on 16 weeks AGE-BSA)
# Assay type: biochemical, bovine
# condition set: read-out: % Breakage
Overview of reported inhibition at 10000 µM across a group of compounds:
property label: inhibition at 10000 µM (%)

>>> df
                                   compound  value_measured
0  CCOC(=O)C1CSCN1C(=O)C[n+]1cccc(C(=O)NNS(C)(=O)=O)c1 (stereo not shown)            25.1
1  O=C(NNC(=O)c1ccc[n+](CC(=O)c2cc([N+](=O)[O-])cs2)c1)c1ccc[n+](CC(=O)c2cc([N+](=O)[O-])cs2)c1            75.9
2  CCOC(=O)C1CCCN1C(=O)C[n+]1cccc(C(=O)NNS(C)(=O)=O)c1 (stereo not shown)            25.3
3  O=C(C[n+]1ccsc1)c1ccccc1 [PTB, N- phenacyl thiazolium bromide, reference compound]              27
